# TARGET_OR_SYSTEM: T1, 4-1BB (CD137), antigen of the Octet kinetics (UniProt Q07011 24-186, limits assumed)
# T1 construct: also called TNFRSF9
# ASSAY_SUMMARY: Octet (BLI), mono-valent binding kinetics
Listing of entries alongside the reported Kd.

[
  {
    "BINDER": "huF1.1.G2.2.4 (antibody, human IgG2, kappa, V domains shown, also called huF1.1.2.4) VH: QVQLVQSGAEVKKPGASVKVSCKASGYTFTFYTMHWLRQAPGQGLEWIGYINPSSGYTNYNQKFTDRATLTADTSTSTAYMELSSLRSEDTAVYYCARSDGSSSKWYFDVWGQGTTVTVSS VL: EIVLTQSPDFQSATPKEKVTITCRASSSVSYIHWYQQKPGSSPKAWISATSNLASGVPSRFSGSGSGTSYTLTINRVEAEDAATYYCQQWSSNPFTFGQGTKLEIKR",
    "READING_UNIT": "nM",
    "Kd": 40.6
  },
  {
    "BINDER": "cAb 137QL.F1.1.G2 (antibody, human IgG2, V domains shown, Chimeric antibody; also called Chimeric F1.1; cAb F1.1.G2) VH: QVQLQQSGAELARPGASVKMSCKASGYTFTFYTMHWLKQRPGQGLEWIGYINPSSGYTNYNQKFTDKATLTADKSSSTAYMQLSSLTSEDSAVYYCARSDGSSSKWYFDVWGTGTTVTVSS VL: QIVLSQSPTILSASPGEKVTMTCRASSSVSYIHWYQQKPGSSPKAWISATSNLASGVPARFSGSGSGTSYSLTISRVEAEDAATYYCQQWSSNPFTFGSGTKLEIK",
    "READING_UNIT": "nM",
    "Kd": 41.9
  },
  {
    "BINDER": "huF1.1.G2.4.4 (antibody, human IgG2, kappa, V domains shown, also called huF1.1.4.4) VH: QVQLVQSGAEVKKPGASVKMSCKASGYTFTFYTMHWLKQAPGQGLEWIGYINPSSGYTNYNQKFTDRATLTADKSTSTAYMELSSLRSEDTAVYYCARSDGSSSKWYFDVWGQGTTVTVSS VL: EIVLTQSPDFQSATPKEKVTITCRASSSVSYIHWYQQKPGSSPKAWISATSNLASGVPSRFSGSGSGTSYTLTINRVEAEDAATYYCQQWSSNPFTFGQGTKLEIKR",
    "READING_UNIT": "nM",
    "Kd": 40.4
  }
]
